Where do these numbers come from? They come from patent US20240010721A1.

test target: ROR1 (antigen of the KD determination and of the Octet dissociation measurement) (UniProt Q01973 30-403, limits assumed)
Sequence (Q01973 30-403 limits assumed): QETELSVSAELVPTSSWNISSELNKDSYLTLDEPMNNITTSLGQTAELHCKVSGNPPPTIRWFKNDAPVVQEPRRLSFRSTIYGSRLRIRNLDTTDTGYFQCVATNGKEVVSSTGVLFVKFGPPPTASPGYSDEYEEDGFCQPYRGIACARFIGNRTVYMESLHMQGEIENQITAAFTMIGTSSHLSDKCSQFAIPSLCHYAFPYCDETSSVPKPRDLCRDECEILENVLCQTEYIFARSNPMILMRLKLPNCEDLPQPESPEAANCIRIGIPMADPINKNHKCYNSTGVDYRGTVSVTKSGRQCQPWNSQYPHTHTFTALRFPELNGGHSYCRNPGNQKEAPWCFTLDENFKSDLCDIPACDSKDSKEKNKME
assay: method not stated (conventional procedures)
Overview of recorded kon for various binders
A number alone suffices; assume M⁻¹ s⁻¹.

Guide cases for kon, answers given:
binder	observed value
PR001360 (antibody, human IgG1, kappa, V domains shown, fully human IgG1, kappa) VH: QVQLVESGGGVVQPGRSLRLSCAASGFTFSSYGMHWVRQAPGKGLEWVAVIWYDGSDKDSVDSVKGRFTISRDDSKNTLYLQMNSLRAEDTAVYYCAREQARSFDLWGRGTLVTVSS VL: DIQMTQSPSTLSASVGDRVTITCRASQTINNWLAWYQQKPGKAPKLLIYKASSLESGVPSRFSGSGSGTEFTLTISSLQPDDFATYYCQQYNIYSPMYTFGQGTKVEIKR	309000
PR001415 (antibody, human IgG1, kappa, V domains shown, fully human IgG1, kappa) VH: EVQLVESGGGVVQPGRSLRLSCAASGFTFSNSGMHWVRQAPGKGLEWVAIMWYDGSNKDYADSVKGRFTISRDTSKNTLYLQMNSLRAEDTAVYYCAREQARSFDLWGRGTLVTVSS VL: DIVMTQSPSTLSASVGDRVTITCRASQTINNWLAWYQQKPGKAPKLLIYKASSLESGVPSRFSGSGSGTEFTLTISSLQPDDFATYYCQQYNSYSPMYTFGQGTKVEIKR	336000
PR001368 (antibody, V domains shown, fully human IgG1, kappa) VH: QVQLVESGGGVVQPGRSLRLSCAASGFTFSTYGMHWVRQAPGKGLEWVAVIWYDGSDTDYADSVKGRFTISRDTSKNTLYLQMNSLRAEDTAVYYCAREQARSFDLWGRGTLVTVSS VL: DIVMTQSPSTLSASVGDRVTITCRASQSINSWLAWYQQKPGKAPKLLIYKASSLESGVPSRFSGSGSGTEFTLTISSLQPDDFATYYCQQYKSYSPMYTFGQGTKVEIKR	402000

May I ask what kon has been recorded for Positive control antibody (PR000374) (antibody, human IgG1, kappa, V domains shown) VH: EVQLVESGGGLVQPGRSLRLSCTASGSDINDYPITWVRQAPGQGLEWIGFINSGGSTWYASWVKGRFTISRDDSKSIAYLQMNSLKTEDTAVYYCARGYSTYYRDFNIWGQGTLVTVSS VL: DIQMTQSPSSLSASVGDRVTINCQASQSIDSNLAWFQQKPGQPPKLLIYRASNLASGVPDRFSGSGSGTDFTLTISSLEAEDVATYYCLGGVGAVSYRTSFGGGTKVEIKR ?
437000

May I ask what kon has been recorded for PR001361 (antibody, V domains shown, fully human IgG1, kappa) VH: QVQLVQSGGGVVQPGRSLRLSCTASGFTFSRYGMLWVRQAPGKGLEWVAVAWYDGVSEDYADSVKGRFTISRDNSMNTLSLQMNSLRAEDTAVYYCAREQARSFDLWGRGTLVTVSS VL: DIQLTQSPSTLSASVGDRVTITCRASQSINSWLAWYQQKPGKAPKLLIYKASSLESGVPSRFSGSGSGTEFTLTISSLQPDDFATYYCQQYKSYSPMYTFGQGTKVDIKR ?
590000
